- Test system: HL-60
- test_details: NCI tumour cell line growth inhibition, 48 h
Activity calls are given as the source filed them. Rule as the data show it: active = GI50 up to about 1.1 µM and inactive = higher.
Would you kindly list GI50 for each of these compounds?

Worked examples follow.
C/C(=C\CBr)CCC(Br)C(C)(C)Br (stereo not given) | > 100 µM (inactive)
CC1=NNC(=S)NCCCN2CCN(CCCNC(=S)NN=C(C)C=NNC(=S)NCCCN3CCN(CCCNC(=S)NN=C1)CC3)CC2 | > 100 µM (inactive)
C=CCCCCCCCCC(=O)O | 101 µM (inactive)
CC1CC/C(=C\c2ccc(F)cc2)C2=C1C(c1ccc(F)cc1)n1c(s/c(=C/c3cccc(Br)c3)c1=O)=N2 (stereo not given) | > 100 µM (inactive)

Okay, now this compound:
So what does the record say about GI50 for Cc1cc(N(CCC#N)CCC#N)ccc1/C=C1N=C(/C=C\c2ccccc2)OC\1=O ?
> 100 µM (inactive)

====

- Test system: HT-29
- test_details: NCI tumour cell line growth inhibition, 48 h
Activity calls are given as the source filed them. No stated cut-off is given here; in the data, active = GI50 up to about 1.1 µM and inactive = higher.
Result category, one only: label 1 = active, label 0 = inactive

As a guide, the following entries are already answered.
O=C(O)c1ccc(Nc2nc3cc(C(F)(F)F)ccc3nc2C(=O)O)cc1 | label 0
COc1ccc(/C(C#N)=C2/O/C(=N/N)C(c3ccc(OC)c(OC)c3)C2=O)cc1OC (stereo not given) | label 0
COc1ccc2c(c1)CCCN1CCc3cc(OC)c(OC)cc3C21 (stereo not given) | label 0
Cn1c(=O)c2nc(CCCCC(=O)O)[nH]c2n(C)c1=O | label 0
Nc1nc(-c2cccnc2)cc(-c2cc(-c3cccnc3)nc(N)n2)n1 | label 0
O=[N+]([O-])c1ccc2sc(/C=N/c3cnccn3)cc2c1 | label 0

Hey, what did the test say about CCOc1ccc(NC(=O)C(=O)CC(=O)c2sc(NNC(C)=O)nc2C)cc1 ?
label 0

Hey, what did the test say about CCOC(=O)C(C(=O)OCC)=C1NC2(c3ccccc3Nc3ccc(C)cc32)C(C(=O)OC)S1 (stereo not given) ?
label 0

Hey, what did the test say about CN(C(=O)C1(C(=O)C=[N+]=[N-])CC1)c1ccccc1 ?
label 0

Hey, what did the test say about CC(C)(C)S(=O)OC12CC3CC(CC(C3)C1)C2 (stereo not given) ?
label 0

Hey, what did the test say about Cc1ncc([N+](=O)[O-])n1CCNS(=O)(=O)CCCn1ccnc1[N+](=O)[O-] ?
label 0

Hey, what did the test say about COc1ccc2c(c1)C(=O)/C(=C/c1ccccc1)C2 ?
label 0

====

- Tested on: 786-0
- test_details: NCI tumour cell line growth inhibition, 48 h
Calls of active or inactive are those of the source. No stated cut-off is given here; in the data, active = GI50 up to about 1.1 µM and inactive = higher.
Result category, one only: YES for active, NO for inactive

C=C1[C@H](OCC(C)C)[C@@H](O)[C@@H](OC(=O)c2cccnc2)C(C)(C)/C=C/[C@H](C)[C@H](OC(C)=O)[C@@]2(O)C[C@@](C)(OC(C)=O)[C@H](OC(=O)c3ccccc3)[C@@H]2[C@H]1OC(C)=O | NO
CN1CN(c2ccccc2)C2(CCN(C3Nc4ccccc4O3)CC2)C1=O (centres undefined) | NO
COc1cc(OC)c2c(=O)c(OC)c(-c3ccc4c(c3)OCO4)oc2c1 | NO
O=C1N(Cl)C(=O)C(c2ccc(Cl)cc2)(c2ccc(Cl)cc2)N1Cl | NO
CCOC(=O)C1C2C1C1C(C(=O)OCC)C21 (centres undefined) | NO

Hey, what did the test say about Nc1nc[n+](Cc2ccccc2CCO)c2[nH]cnc12 ?
NO

Hey, what did the test say about COC(=O)[C@H](Cc1ccccc1)NC(=O)c1ccc(CNC(=O)/C=C/c2cccc(Oc3ccccc3)c2)cc1 ?
NO

Hey, what did the test say about CC(C)Oc1cccc(N2C(Nc3ccccc3)=Nc3ccncc3S2(=O)=O)c1 ?
NO

Hey, what did the test say about CC1(C)N=C(N)N=C(N)N1c1cccc(Cl)c1 ?
YES
